The origin of these recorded values is patent US8476197B2.

# setup conditions: pH 7.5
Reported Log P values follow for various compounds
Please reply with the number alone, leaving off any unit.

Worked examples, 3 compounds total:
# compound, reported endpoint, experimental value
measured = [
    ("COC(=O)C(C#N)=C(NC(C)C(C)C)c1cccnc1Br (centres unmarked)", "Log P", 2.88),
    ("COC(=O)C(C#N)=C(NC(C)C(C)(C)C)c1cccnc1Cl (mixture of isomers)", "Log P", 3.14),
    ("COC(=O)C(C#N)=C(NC(CO)C(N)=O)c1cccnc1Cl (centres unmarked)", "Log P", 0.79),
]

query: Return the recorded Log P value; entry: `CCOC(=O)C(C#N)=C(Nc1cccc(F)c1F)c1cccnc1Cl`
result: 2.88

---

# setup conditions: pH 2.7
Marks after values point to notes of the source that are not given here.
Reported Log P values follow for various compounds

query: Return the recorded Log P value; entry: CC(C)C(C)NC(=C(C#N)C(=O)NCc1ccccn1)c1cccnc1Cl (stereo not shown) [Compound 1517]
result: 1.94^[a]

query: Return the recorded Log P value; entry: CCOC(=O)C(C#N)=C(NCC#N)c1ccsc1Br [Compound 791]
result: 2.32^[a]

query: Return the recorded Log P value; entry: COC(=O)C(C#N)=C(NC(C)c1nccs1)c1cn(C)nc1C(F)F (racemic) [Compound 61]
result: 2.13^[a]

query: Return the recorded Log P value; entry: CCOC(=O)C(C#N)=C(NC1(c2c(F)cccc2F)CC1)c1cn(C)nc1C(F)F [Compound 559]
result: 3.17^[a]

---

Reported Log P values follow for various compounds
# setup conditions: pH 2.7
Marks after values point to notes of the source that are not given here.

Worked examples, 3 compounds total:
# compound, experimental value
data = [
    ("CC#CC(C)(C)NC(=C(C#N)C(=O)OCC)c1sccc1Br", "3.85^[a]"),
    ("CCOC(=O)C(C#N)=C(NC(C)C1CC1)c1cn(C)nc1C(F)(F)F (racemic)", "3.29^[a]"),
    ("CCOC(=O)C(C#N)=C(NC1(c2c(F)cccc2F)CC1)c1cn(C)nc1C(C)F (racemic)", "3.23^[a]"),
]

query: Return the recorded Log P value; entry: CCOC(=O)C(C#N)=C(NC(C)C(=O)Nc1ccc2ccccc2c1)c1cn(C)nc1C(F)F (stereo not shown)
result: 3.31^[a]

query: Return the recorded Log P value; entry: COC(=O)C(C#N)=C(NC(C)c1ccc(C(C)(C)C)cc1)c1cccnc1Cl (stereo not shown)
result: 4.23^[a]

query: Return the recorded Log P value; entry: CCCCCC(C)NC(=C(C#N)C(=O)OCC)c1sc(C)nc1C(F)(F)F (stereo not shown) [Compound 856]
result: 4.81^[a]

query: Return the recorded Log P value; entry: `CCOC(=O)C(C#N)=C(Nc1cccc(Cl)c1)c1sc(C)nc1C(F)(F)F`
result: 3.89^[a]

query: Return the recorded Log P value; entry: CCNC(=O)C(C#N)=C(NC(C)C(C)C)c1ccnc(C)c1Cl (stereo not shown)
result: 3.08^[a]

query: Return the recorded Log P value; entry: CCNC(=O)C(C#N)=C(NCC(C)c1nccs1)c1cccnc1Cl (stereo not shown)
result: 2.14^[a]

---

# setup conditions: pH 2.7
Marks after values point to notes of the source that are not given here.
Reported Log P values follow for various compounds

Worked examples, 3 compounds total:
# compound, Log P
records = [
    ("CCOC(=O)C(C#N)=C(NC1CCCCC1)c1cn(C)nc1C(F)F", "3.29^[a]"),
    ("CCOC(=O)C(C#N)=C(NC(C)c1ccc(Cl)cc1)c1cn(C)cc1C(F)(F)F (racemic)", "4.2^[a]"),
    ("CCCCCC(C)NC(=C(C#N)C(=O)OCC)c1sccc1Br (stereo not drawn) [Compound 844]", "5.03^[a]"),
]

query: Return the recorded Log P value; entry: `CCOC(=O)C(C#N)=C(NCc1nc(C)cs1)c1sccc1C(F)(F)F`
result: 3.11^[a]

query: Return the recorded Log P value; entry: CCOC(=O)C(C#N)=C(NC(C)CCc1ccccc1)c1sccc1C(F)(F)F (stereo not drawn)
result: 4.56^[a]

query: Return the recorded Log P value; entry: CCOC(=O)C(C#N)=C(NC(C)c1nccs1)c1cn(C)nc1C(Cl)Cl (stereo not drawn)
result: 2.75^[a]

query: Return the recorded Log P value; entry: `COC(=O)C(C#N)=C(NC(C1CC1)C1CC1)c1cccnc1Cl`
result: 2.85^[a]

query: Return the recorded Log P value; entry: CCOC(=O)C(C#N)=C(NC(C)COc1ccccc1Cl)c1cccnc1Cl (stereo not drawn)
result: 3.78^[a]

query: Return the recorded Log P value; entry: C=CC(COCc1ccccc1)NC(=C(C#N)C(=O)OCC)c1cn(C)nc1C(F)F (stereo not drawn)
result: 3.51^[a]

---

Reported Log P values follow for various molecules
# setup conditions: pH 7.5
Marks after values point to notes of the source that are not given here.

# molecule, Log P
records = [
    ("CCNC(=O)C(C#N)=C(Nc1ccccc1SC)c1cccnc1Cl [Compound 1616]", 2.82),
    ("CCOC(=O)C(C#N)=C(NC(C)c1nccs1)c1ccnc(Cl)c1Cl (centres unmarked) [Compound 1276]", 2.91),
    ("CCOC(=O)C(C#N)=C(NC(C)C(C)C)c1cccnc1-c1cccs1 (centres unmarked) [Compound 1505]", "3.7^[c]; 3.7^[b]"),
]

query: Return the recorded Log P value; entry: COC(=O)C(C#N)=C(NC(C)CSC)c1cccnc1Cl (centres unmarked) [Compound 575]
result: 2.38

query: Return the recorded Log P value; entry: COC(=O)C(C#N)=C(NCC1OCCO1)c1cccnc1Cl [Compound 14]
result: 1.77

---

# setup conditions: pH 2.7
Marks after values point to notes of the source that are not given here.
Reported Log P values follow for various compounds

Worked examples, 3 compounds total:
# compound, experimental value
data = [
    ("CCOC(=O)C(C#N)=C(NC(C)C1CCC1)c1ccnn1C(F)F (stereo not shown)", "3.56^[a]"),
    ("CCOC(=O)C(C#N)=C(NC(C)c1nccs1)c1cc(Cl)sc1Cl (racemic) [Compound 221]", "3.65^[a]"),
    ("CCOC(=O)C(C#N)=C(NC(C)c1ccc(Cl)s1)c1cccnc1Cl (mixture of isomers)", "3.8^[a]"),
]

Below: the item to evaluate.
query: Return the recorded Log P value; entry: CCOC(=O)C(C#N)=C(NC(C)C1CC1)c1sc(C)nc1C(F)(F)F (stereo not shown)
result: 3.61^[a]

---

# setup conditions: pH 2.7
Marks after values point to notes of the source that are not given here.
Reported Log P values follow for various compounds

query: Return the recorded Log P value; entry: CCOC(=O)C(C#N)=C(NC(C)c1nc(C(F)(F)F)no1)c1cc(Cl)ncc1Cl (racemic) [Compound 254]
result: 3.83^[a]

query: Return the recorded Log P value; entry: CCCC(CO)NC(=C(C#N)C(=O)OCC)c1cccnc1Cl (stereo not drawn) [Compound 1368]
result: 2.45^[a]

---

# setup conditions: pH 2.7
Marks after values point to notes of the source that are not given here.
reported endpoint: Log P

# compound, Log P
data = [
    ("CCOC(=O)C(C#N)=C(NC(C)c1ccc(Cl)cc1)c1c(C)nn(C)c1F (stereo not shown)", "3.62^[a]"),
]

query: Return the recorded Log P value; entry: CCOC(=O)C(C#N)=C(NC(c1ccc(N(C)C)cc1)C(F)(F)F)c1cn(C)nc1C(F)F (racemic)
result: 3.78^[a]

query: Return the recorded Log P value; entry: `CCOC(=O)C(C#N)=C(NC(C)C)c1cn(C)nc1C(F)F`
result: 2.53^[a]

query: Return the recorded Log P value; entry: CCOC(=O)C(C#N)=C(NC(C)C(C)C)c1ncc(C(F)(F)F)cc1Cl (stereo not shown)
result: 4.29^[a]

---

Reported Log P values follow for various compounds
# setup conditions: pH 2.7
Marks after values point to notes of the source that are not given here.

Worked examples, 5 compounds total:
# compound, Log P
rows = [
    ("CCOC(=O)C(C#N)=C(NC(C)c1cccs1)c1sccc1Br (stereo not drawn) [Compound 211]", "3.92^[a]"),
    ("CCOC(=O)C(C#N)=C(NCc1ccccn1)c1ccsc1I [Compound 166]", "2.56^[a]"),
    ("CCOC(=O)C(C#N)=C(NC1CCCCNC1=O)c1cc(C)oc1C (stereo not drawn) [Compound 119]", "2.14^[a]"),
    ("CCOC(=O)C(C#N)=C(NC(C)C1CCCCC1)c1sccc1Br (stereo not drawn) [Compound 875]", "5.11^[a]"),
    ("CCOC(=O)C(C#N)=C(NC(C)CN(C)C)c1cn(C)nc1C(F)(F)F (stereo not drawn) [Compound 602]", "1.36^[a]"),
]

query: Return the recorded Log P value; entry: CCOC(=O)C(C#N)=C(NC1CCC1C)c1cccnc1Cl (stereo not drawn) [Compound 1065]
result: 3.37^[a]

query: Return the recorded Log P value; entry: CCOC(=O)C(C#N)=C(NC(C)c1nccs1)c1cc(Cl)sc1Cl (stereo not drawn) [Compound 1578]
result: 3.58^[a]

query: Return the recorded Log P value; entry: CCOC(=O)C(C#N)=C(NC(C)c1ccc(C)cc1)c1sccc1C(F)(F)F (mixture of isomers) [Compound 439]
result: 4.54^[a]

query: Return the recorded Log P value; entry: CCOC(=O)C(C#N)=C(NC(C)c1ccc(Cl)cn1)c1cccnc1Cl (stereo not drawn) [Compound 1445]
result: 3.3^[a]

query: Return the recorded Log P value; entry: CCOC(=O)C(C#N)=C(NC(C)C(=O)NC)c1ccnc(Cl)c1Cl (stereo not drawn) [Compound 1387]
result: 2.1^[a]

query: Return the recorded Log P value; entry: COC(=O)C(C#N)=C(NC(C(=O)OC)C(C)C)c1sc(C)nc1C(F)(F)F (stereo not drawn) [Compound 667]
result: 3.29^[a]

query: Return the recorded Log P value; entry: CCOC(=O)C(C#N)=C(Nc1ccccc1SC)c1sccc1C(F)(F)F [Compound 369]
result: 4.01^[a]

query: Return the recorded Log P value; entry: CCCC(COCC)NC(=C(C#N)C(=O)OC)c1cccnc1Cl (stereo not drawn) [Compound 626]
result: 3.15^[a]

query: Return the recorded Log P value; entry: CCOC(=O)C(C#N)=C(NCc1ccccn1)c1ccsc1Br [Compound 115]
result: 2.53^[a]

query: Return the recorded Log P value; entry: CCOC(=O)C(C#N)=C(NC(C)Cc1c[nH]c2ccccc12)c1nsc(Cl)c1Cl (racemic) [Compound 54]
result: 4.1^[a]

query: Return the recorded Log P value; entry: COC(=O)C(C#N)=C(NC(C)c1cccc(Cl)c1)c1cccnc1Cl (stereo not drawn) [Compound 403]
result: 3.19^[a]

query: Return the recorded Log P value; entry: CCOC(=O)C(C#N)=C(NC(C)c1ccc(C)cc1)c1cn(C)nc1C(F)F (mixture of isomers) [Compound 455]
result: 3.51^[a]

query: Return the recorded Log P value; entry: COC(=O)C(C#N)=C(NC1CCC(C)C(C)C1)c1cccnc1Cl (stereo not drawn) [Compound 1070]
result: 3.73^[a]
